# Test system: DeltatarO mutant
# method notes: S. aureus survival, RN4220 and DeltatarO strains – OD600, teichoic acid synthesis inhibitors, primary screen (AID 463173)
# condition info: S. aureus RN4220 wild type/DeltatarO growth, OD600, 18 h, screened at 18.75 µg/mL (by protocol)
Among all 52,000 compounds or so, about 4,300 (8.3%) were called active. No stated cut-off is given here; in the data, active means survival mostly below about 52% (no sharp cut-off); inactive means mostly above about 56%. The sample holds actives, similar compounds and a random draw of the others, so the mix is not that of the screen.
Labels: active, inactive

> print(dat)
                                    molecule  target.or.system  answer.label
 1  COc1ccc(NC(=O)Cn2nnc(C(=O)NCc3ccc4c(c3)OCO4)c2N)cc1  DeltatarO mutant      inactive
 2  CCc1cccc(C)c1NC(=O)c1cc(S(=O)(=O)N2CCC3(CC2)OCCO3)ccc1F  DeltatarO mutant      inactive
 3  Cc1ccc(C)c(Nc2nnc(-c3ccc(C)c(S(=O)(=O)N4CCN(C)CC4)c3)c3ccccc23)c1  DeltatarO mutant      inactive
 4  CCOc1ccc(NC(=O)CSc2oc(-c3ccco3)nc2S(=O)(=O)c2ccccc2)cc1  DeltatarO mutant      inactive
 5  CN(C)c1ccc(-c2nc(-c3cccs3)c(-c3cccs3)[nH]2)cc1  DeltatarO mutant        active
 6  O=C(NC1C2CCCC1CN(C1CC1)C2)c1ccc(Cl)cc1 (stereo not given)  DeltatarO mutant      inactive
 7  Oc1ccccc1-c1nc(-c2cccs2)c(-c2cccs2)[nH]1  DeltatarO mutant        active
 8  CCOC(=O)Cn1c(=O)oc2cc(S(=O)(=O)NC(C)c3ccccc3)ccc21 (stereo not given)  DeltatarO mutant      inactive
 9  CC(C)NC(=O)CSc1nc2ccccc2c(=O)n1Cc1ccc(C(=O)NC(C)C)cc1  DeltatarO mutant      inactive
10  Cc1ccc(-c2nc(-c3cccs3)c(-c3cccs3)[nH]2)cc1  DeltatarO mutant      inactive
